# Tested on: NCI-H226 lung
# methodNotes: NCI-60 one-dose screen, 48 h
# condition: 10 µM unless noted
Compounds without any hit were thinned out: in the full panel of roughly 83,000, 20% have a hit. Active and inactive are the calls of the source. The calls were made as follows: active = growth percent below 10; inactive = the rest.
Just give me one of these, please: active, inactive

Take a look at these entries with their results.
{"columns": ["structureString", "labelValue"],
 "data": [
  ["CN1CCN(Cc2ccc(NC(=O)c3cncc(C#Cc4c(N)ncc5ccc(F)cc45)c3)cc2C(F)(F)F)CC1", "active"],
  ["CCCCCCCCC(=O)Nc1ccc(O)cc1", "inactive"],
  ["C[n+]1c2ccccc2c(Nc2ccc(NS(=O)(=O)CCCCN=C(N)N)cc2)c2ccc(N)cc21", "inactive"],
  ["OCCN1CCCN(CCCN2c3ccccc3Sc3ccc(C(F)(F)F)cc32)CC1", "inactive"]
]}

For the next question, use this molecule.
// param item: "O=C(/C=C\c1ccc(NCc2ccc(C(=O)O)cc2)cc1)CCl" ; yields the recorded call inactive

Recorded values, source PubChem BioAssay (NCI).
